B1: library; a variant is named by its letters at N, in order (parent)
chain: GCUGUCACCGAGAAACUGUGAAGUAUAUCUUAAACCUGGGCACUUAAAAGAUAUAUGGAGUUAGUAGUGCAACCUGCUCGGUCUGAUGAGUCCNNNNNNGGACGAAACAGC

Variants of: B1
Experiment: normalized RNA/DNA level with ligand (relative to sTRSVctl = 100) (log10 (% of sTRSVctl)); HEK293T; ligand: cyclic di-GMP (c-di-GMP-II aptamer); ligand concentration (+) RNA-Seq: 1 mM; higher = less ribozyme self-cleavage, higher mRNA level
Conditions: reporter: mCherry (pCS4076), ligand present: yes
Property label: normalized RNA/DNA level with ligand (log10)
API note: the answer field is a bare number with no unit suffix.

// known answers, use as guide
Mutation code	Recorded value
CACUGU	1.83
UUGCCU	1.89
UAUGGC	1.82

Q: Which normalized RNA/DNA level with ligand (log10) is reported for this variant? "CCAUCA"
Result: 1.77

Q: Queued: "CUUCUG"
Result: 1.85

Q: Queued: "UGCGCG"
Result: 1.92

Q: Queued: "GUCCGA"
Result: 1.78

Q: Queued: "AAGGCG"
Result: 1.83

Q: Queued: "GGGAGC"
Result: 1.76

Q: Queued: "CCUGGG"
Result: 1.82

Q: Queued: "CAUUGC"
Result: 1.85

Q: Queued: "UCCGUG"
Result: 1.85

The reported numbers originate from the supplement of paper PMC6757056.
